biological target: Broad substrate specificity ATP-binding cassette transporter ABCG2 (Homo sapiens, UniProt Q9UNQ0); assay: Activation of ABCG2 (unknown origin) ATPase activity expressed in baculovirus infected high five cell membranes by ascorbic acid/ammonia molybdate reaction-based colorimetric analysis; details: read-out: EC50
Sequence (Q9UNQ0 whole entry): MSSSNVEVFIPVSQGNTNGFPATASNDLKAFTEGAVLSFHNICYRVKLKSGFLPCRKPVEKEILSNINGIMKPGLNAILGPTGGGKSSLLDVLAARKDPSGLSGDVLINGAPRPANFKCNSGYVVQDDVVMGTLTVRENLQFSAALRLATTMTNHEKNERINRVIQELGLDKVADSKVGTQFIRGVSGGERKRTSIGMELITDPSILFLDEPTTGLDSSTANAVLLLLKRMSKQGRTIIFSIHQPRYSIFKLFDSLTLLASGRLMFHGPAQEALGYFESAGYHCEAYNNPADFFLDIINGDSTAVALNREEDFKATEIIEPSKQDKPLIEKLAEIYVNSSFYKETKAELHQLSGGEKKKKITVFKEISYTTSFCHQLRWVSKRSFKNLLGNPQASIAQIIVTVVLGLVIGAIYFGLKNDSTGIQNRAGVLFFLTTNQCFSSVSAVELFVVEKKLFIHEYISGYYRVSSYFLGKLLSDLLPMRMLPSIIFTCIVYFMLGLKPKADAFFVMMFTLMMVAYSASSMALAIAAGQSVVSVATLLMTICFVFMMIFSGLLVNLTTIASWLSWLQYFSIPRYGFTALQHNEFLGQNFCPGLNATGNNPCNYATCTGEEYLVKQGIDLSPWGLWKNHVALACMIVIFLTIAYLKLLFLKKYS
Label satisfied when EC50 < 50 nM; otherwise not satisfied.

[[record]]
compound = "COc1ccc(Nc2nc(-c3ccncc3)nc3ccccc23)cc1OC"
label = "satisfied"

[[record]]
compound = "Fc1cccc(Nc2nc(-c3ccccc3)nc3ccccc23)c1"
label = "not satisfied"


Confirm or reject: EC50 of COc1cccc(Nc2cc(C)nc(-c3ccncc3)n2)c1 lies strictly below 50 nM
not satisfied

Confirm or reject: EC50 of O=[N+]([O-])c1cc(Nc2nc(-c3ccccc3)nc3ccccc23)ccc1O lies strictly below 50 nM
satisfied

Confirm or reject: EC50 of O=[N+]([O-])c1cccc(Nc2nc(-c3ccccn3)nc3ccccc23)c1 lies strictly below 50 nM
not satisfied

Confirm or reject: EC50 of O=[N+]([O-])c1cccc(Nc2nc(-c3cccnc3)nc3ccccc23)c1 lies strictly below 50 nM
satisfied

Confirm or reject: EC50 of COc1ccc(Nc2nc(-c3ccccn3)nc3ccccc23)cc1OC lies strictly below 50 nM
not satisfied

Confirm or reject: EC50 of O=[N+]([O-])c1cc(Nc2nc(-c3cccnc3)nc3ccccc23)ccc1O lies strictly below 50 nM
satisfied

Confirm or reject: EC50 of Cc1cc(Nc2cccc(C#N)c2)nc(-c2ccccc2)n1 lies strictly below 50 nM
not satisfied

Confirm or reject: EC50 of COc1ccc(Nc2nc(-c3ccncc3)nc3ccccc23)cc1 lies strictly below 50 nM
not satisfied

Hello, the source for this data is ChEMBL document CHEMBL4014315, in case you need it.
